Test system: Mycobacterium tuberculosis
Assay: Antimycobacterial activity against isoniazid/rifampicin/ethambutol-resistant Mycobacterium tuberculosis G122 assessed as inhibition of mycobacterial growth incubated for 2 weeks by MABA method
Format: functional
Readings of -logMIC for the listed compounds
Measured property: -logMIC

| Compound | Assayed system | Quantitative readout |
| --- | --- | --- |
| COc1cc(C[C@@H](C)[C@@H](C)Cc2ccc(OC(C)=O)c(OC)c2)ccc1O (racemic) | Mycobacterium tuberculosis | 4.07 |
| COc1cc(C[C@@H](C)[C@@H](C)Cc2ccc(OC(=O)c3cnccn3)c(OC)c2)ccc1O (racemic) | Mycobacterium tuberculosis | 4.07 |
| COc1cc(C[C@@H](C)[C@@H](C)Cc2ccc(OC(=O)c3cnccn3)c(OC)c2)ccc1OC(=O)c1cnccn1 | Mycobacterium tuberculosis | 4.23 |
| CCCC(=O)Oc1ccc(C[C@@H](C)[C@@H](C)Cc2ccc(OC(=O)CCC)c(OC)c2)cc1OC | Mycobacterium tuberculosis | 4.03 |
| COc1cc(C[C@@H](C)[C@@H](C)Cc2ccc(OC(=O)c3ccccc3[N+](=O)[O-])c(OC)c2)ccc1O (racemic) | Mycobacterium tuberculosis | 4.24 |
| COc1cc(C[C@@H](C)[C@@H](C)Cc2ccc(OC(=O)c3ccc(Br)cc3)c(OC)c2)ccc1O (racemic) | Mycobacterium tuberculosis | 3.98 |
| COc1cc(C[C@@H](C)[C@@H](C)Cc2ccc(OC(=O)c3cccnc3)c(OC)c2)ccc1OC(=O)c1cccnc1 | Mycobacterium tuberculosis | 4.2 |
| CCCCCCCC/C=C\CCCCCCCC(=O)Oc1ccc(C[C@H](C)[C@H](C)Cc2ccc(O)c(OC)c2)cc1OC (racemic) | Mycobacterium tuberculosis | 3.9 |
| COc1cc(C[C@@H](C)[C@@H](C)Cc2ccc(OCCN3CCCC3)c(OC)c2)ccc1O (racemic) | Mycobacterium tuberculosis | 4.95 |
| CCN(CC)CCOc1ccc(C[C@@H](C)[C@@H](C)Cc2ccc(OCCN(CC)CC)c(OC)c2)cc1OC | Mycobacterium tuberculosis | 4.25 |
| CCCCCCCC/C=C\CCCCCCCC(=O)Oc1ccc(C[C@@H](C)[C@@H](C)Cc2ccc(OC(=O)CCCCCCC/C=C\CCCCCCCC)c(OC)c2)cc1OC | Mycobacterium tuberculosis | 4.58 |
| COc1cc(C[C@@H](C)[C@@H](C)Cc2ccc(OC(=O)c3ccccn3)c(OC)c2)ccc1OC(=O)c1ccccn1 | Mycobacterium tuberculosis | 3.91 |

---

Test system: Mycobacterium tuberculosis
Experiment: Antimycobacterial activity against isoniazid/rifampicin/ethambutol-resistant Mycobacterium tuberculosis G122 assessed as inhibition of mycobacterial growth incubated for 2 weeks by MABA method
Type: functional
Conditions: Mycobacterium tuberculosis, G122, 336 h
Readings of MIC for the listed molecules

| Molecule | Unit abbreviation | Comparative sign | MIC |
| --- | --- | --- | --- |
| CC[C@@H](CO)NCCN[C@@H](CC)CO | µg/mL | = | 6.25 |
| COc1cc(C[C@@H](C)[C@@H](C)Cc2ccc(OCCN3CCCCC3)c(OC)c2)ccc1OCCN1CCCCC1 | µg/mL | = | 6.25 |
| COc1cc(C[C@@H](C)[C@@H](C)Cc2ccc(OC(=O)c3ccccc3)c(OC)c2)ccc1O (racemic) | µg/mL | > | 50 |
| COc1cc(C[C@@H](C)[C@@H](C)Cc2ccc(OC(=O)c3ccccc3[N+](=O)[O-])c(OC)c2)ccc1O (racemic) | µg/mL | = | 50 |
| COc1cc(C[C@@H](C)[C@@H](C)Cc2ccc(OC)c(OC)c2)ccc1O (racemic) | µg/mL | = | 50 |
| COc1cc(C[C@@H](C)[C@@H](C)Cc2ccc(OCCN(C)C)c(OC)c2)ccc1OCCN(C)C | µg/mL | = | 12.5 |
